Where these numbers come from: PubChem BioAssay (NCI)

Quick list: growth per entry.
# Tested on: SNB-75 CNS
# test.protocol: NCI-60 one-dose screen, 48 h (100 = growth as untreated, 0 = no growth, -100 = all killed)
# condition: 10 µM unless noted
This is part of a sample that, as a whole, favours compounds with a hit. Of some 83,000 tested, about 20% had one in any assay.
Write down the numeric answer in % and omit the unit.

Example compounds with recorded growth:
Please report growth for the following compound: CC12CCC(/C(=C/NNc3ccc([N+](=O)[O-])cc3[N+](=O)[O-])C1=O)C2(C)C (stereo not given)
136

// Input: CC(C(=O)O)n1c(O)c(C=Nc2cccnc2)sc1=S (stereo not given) . Output its growth only.
80.3

---
Supply growth value. Item: `O=c1oc2c(cnc3ccccc32)cc1-c1cccs1`
92

Output measured growth for this item: `O=C(/C=C/c1ccccc1)Nc1ncc(Cc2ccccc2)s1`
-2.19

Note down growth recorded for `CCCCCCCCCCCCCCCCCCOc1ccccc1CC(=O)NCC[N+]1(C)CCOCC1`
46.9

Supply reported growth belonging to this compound: `Clc1nccc2c(-c3csc(-c4c[nH]c5ccccc45)n3)c[nH]c12`
41.4

Identify measured growth corresponding to `CCCNc1nc2ccccc2c2c(=O)c3cccc(Cl)c3sc12`
82.3

Report measured growth; entry is `O=C(CCCCCCN1CC(=O)N2[C@@H](C3CCCCC3)c3[nH]c4ccccc4c3C[C@H]2C1=O)NO`
38.1

Query growth for `O=C(CCCCCCN1CC(=O)N2[C@@H](c3ccc(Cl)cc3)c3[nH]c4ccccc4c3C[C@H]2C1=O)NO`
27.1

Identify the reported growth for the following entry. `O=[N+]([O-])/C(=C\c1ccco1)c1ccccc1Cl`
64.8

###

# Tested on: RXF 393 renal
# test.protocol: NCI-60 one-dose screen, 48 h
# condition: 10 µM unless noted
About 83,000 compounds went through this panel and 20% of them were active in at least one assay; those are over-represented in the sample as a whole. Activity calls are given as the source filed them. How the source made its calls: active means growth percent below 10; inactive means the rest.
Log the outcome using a class from active, inactive

// param item: COc1ccc(C2C3=C(COC3=O)N(CCO)c3cc4c(cc32)OCCO4)cc1OC (stereo not given) ; yields the recorded call
active

Can you look up the reported call for `O=C(O)CCCc1cnc2c3sccc3nc(SCc3c(Cl)cccc3Cl)n12` for me?
inactive

// return assay outcome for `Nc1c(C(=O)O)cc(Cl)cc1[N+](=O)[O-]`
inactive

Lab log entry: `CS(=O)(=O)Nc1cncc(-c2ccc3ncnc(Nc4ccc(F)c(Cl)c4)c3c2)c1` — outcome as called in the assay?
inactive

More entries:
Fill in: this test's call for `C=CCn1c(SCC(=O)Nc2ccc(C(=O)/C=C/c3ccc(OC)cc3)cc2)nnc1-c1ccccc1` is ___
inactive

###

# Tested on: K-562 leukemia
# test.protocol: NCI-60 one-dose screen, 48 h (100 = growth as untreated, 0 = no growth, -100 = all killed)
# condition: 10 µM unless noted
About 83,000 compounds went through this panel and 20% of them were active in at least one assay; those are over-represented in the sample as a whole.
Recorded growth by entry
Quick note: give the figure in %, leave out the unit.

Reference set (6 entries):
Tell me growth reported for `CCN(CC)c1ccc(/C=C\c2cc(C)c3cc(C)ccc3n2)cc1`
13.1

Tell us which growth value is on record for `O=c1ccc2nc(C(F)(F)F)nn(-c3ccccc3)c-2c1`
-35.1

# return recorded growth for entry `N#Cc1c(NC(=O)c2cccs2)[n+]([O-])c2ccc(Cl)cc2[n+]1[O-]`
106

Please report growth for the following compound: O=C(O)C1CN(c2cccc(Cl)c2)N(c2cccc(Cl)c2)C1=O (stereo not drawn)
101

Fill in growth for record `O=C(Cn1nnc([N+](=O)[O-])n1)c1ccccc1`
83.3

Read off the recorded growth for `O=C1N[C@@H]2[C@@H](O)[C@@H](O)[C@H](O)C[C@H]2c2cc3c(c(O)c21)OCCO3`
1.56

Further cases:
Quick one: give measured growth for `Cc1cc(N2CCN(C)CC2)nc(NCc2cc(Nc3ccnc4cc(Cl)ccc34)ccc2F)n1`
2.5

Hello, please tell me recorded growth for this one: `C=CCn1c(SCC(=O)Nc2ccc(C(=O)/C=C/c3cc(OC)c(OC)c(OC)c3)cc2)nnc1-c1cc(-c2ccc(OC)cc2)nc2ccccc12`
83.1

Supply growth value. Item: C=CC(C)(O)CC/C=C(\CO)C(=O)OC1C(C)OC(O[C@](C)(C=C)CC/C=C(\CO)C(=O)O[C@H]2C[C@@]3(C(=O)OC4OC(CO)C(O)C(O)C4OC4OC(C)C(OC5OC(CO)C(O)C5O)C(OC5OC(CO)C(O)C(O)C5O)C4O)C(CC2(C)C)C2=CCC4[C@@]5(C)CC[C@H](OC6OC(COC7OC(C)C(O)C(O)C7OC7OCC(O)C(O)C7O)C(O)C(O)C6NC(C)=O)C(C)(C)C5CC[C@@]4(C)[C@]2(C)C[C@H]3O)C(O)C1O (stereo partly drawn)
22.8

Quote growth reported for `Fc1ccc(COc2ccc(Nc3ncnc4sc5c(c34)CCCC5)cc2)cc1` please.
103

Identify the reported growth for the following entry. `O[C@@H](c1cc(C(F)(F)F)nc2c(C(F)(F)F)cccc12)[C@H]1CCCCN1`
15.8

Read off the recorded growth for `COc1ccc(C/C(C)=C(\c2ccc(O)cc2)c2ccc(OCCN3CCCC3)cc2)cc1`
85.5

Answer with the recorded growth for the compound listed here: `Cc1cccc(N2CCN(C(=S)c3ccc4c(c3)OCO4)CC2)c1`
14

Quote growth reported for `Cc1ccc2nc(Cl)c(Cn3nnnc3SCc3ccccc3)cc2c1` please.
87.9

Tell me growth reported for `O=C(O)c1cn(C2CC2)c2cc(N3CCN(C(=O)N/N=C/c4ccccc4)CC3)c(F)cc2c1=O`
89.1

Give the value of growth reported for the following: `Cc1ccc(O)c(NC(=O)c2ccc(CNc3ccnc(C(F)(F)F)c3)cc2)c1`
24.2

Identify growth associated with the compound `O=C(Nc1ncc(Cc2ccccc2Cl)s1)c1cccs1`
16.9

Look up and report measured growth for this entry: `Cc1cscc(C)c1=S`
96

###

# Tested on: IGROV1 ovarian
# test.protocol: NCI-60 one-dose screen, 48 h (100 = growth as untreated, 0 = no growth, -100 = all killed)
# condition: 10 µM unless noted
# Protocol: Growth inhibition of the IGROV1 human tumor cell line is measured as a screen for anti-cancer activity. Cells are grown in 96 well plates and exposed to the test compound for 48 hours. Compounds are tested at a single concentration, which is 10^-5 M for most compounds. The reported endpoint is percent growth (GI% or GIPRCNT), where numbers from 0 - 100% represent growth inhibition, and numbers from -100% - 0 represent cell death. For example, a value of 40 represents 60% growth inhibition. […]
About 83,000 compounds went through this panel and 20% of them were active in at least one assay; those are over-represented in the sample as a whole.
measurement.kind: growth (%)
Only the number, expressed in %, is required.

Take a look at these entries with their results.
Fill in reported growth for this entry: `COC(=O)c1ccc2c(c1)c1c(C)c3ccncc3c(C)c1n2C`
24

Identify the reported growth for the following entry. COC(c1ccc2ccccc2c1)C(C)C(F)F (stereo unspecified)
100

Using known records, supply growth for COc1cc(C2C3=C(COC3=O)N(CCO)c3cc4c(cc32)OCCO4)cc(OC)c1OC (stereo unspecified)
4.17

Further cases:
Return growth for the following molecule: `COc1cc(C(=O)C(=O)c2cc(OC)c(O)c(OC)c2)cc(OC)c1O`
117

Look up and state reported growth for `CCCCc1oc2ccccc2c1C(=O)c1ccc(O)cc1`
79.6

Provide only the value of recorded growth for `O=C(O)CCCn1c(SCc2c(Cl)cccc2Cl)nc2ccsc2c1=O`
44.9

###

# Tested on: OVCAR-5 ovarian
# test.protocol: NCI-60 one-dose screen, 48 h (100 = growth as untreated, 0 = no growth, -100 = all killed)
# condition: 10 µM unless noted
This is part of a sample that, as a whole, favours compounds with a hit. Of some 83,000 tested, about 20% had one in any assay.
measurement.kind: growth (%)
State the answer as a number, implicitly in %.

Some entries whose results are on file:
Fill in growth for record CN(Cc1cnc2nc(N)nc(N)c2n1)c1c(Cl)cc(C(=O)NC(CCC(=O)O)C(=O)O)cc1Cl (stereo not given)
48.7

Hello, please tell me recorded growth for this one: `Cc1ccc(-c2nc(C#N)c(S(=O)(=O)NCCO)o2)cc1`
94.5

Tell me growth reported for `CN1CCN(CCCOc2ccc3ncnc(Nc4ccc(Oc5cccc(F)c5)c(Cl)c4)c3c2)CC1`
25.4

Look up growth of `Oc1c(Cl)cc(Cl)c2ccc(Cn3cc(-c4cccc(C(F)(F)F)c4)nn3)nc12` and report it.
94.5

Provide growth value for the following compound: `COc1ccc(-c2cc(-c3ccc(OC)cc3)nc(NCCCNc3ccnc4cc(Cl)ccc34)n2)cc1`
105

Name the recorded growth of the item COc1cc(C2C3=C(COC3=O)N(CCO)c3cc4c(cc32)OCCO4)cc(OC)c1OC (stereo not given) in your answer.
41.5

Others:
Note growth for the compound shown: `CCCCc1oc2ccccc2c1C(=O)c1ccc(O)cc1`
84.3
